- tgt: sigma-1 receptor (Homo sapiens, UniProt Q99720)
- Sequence (Q99720 whole entry): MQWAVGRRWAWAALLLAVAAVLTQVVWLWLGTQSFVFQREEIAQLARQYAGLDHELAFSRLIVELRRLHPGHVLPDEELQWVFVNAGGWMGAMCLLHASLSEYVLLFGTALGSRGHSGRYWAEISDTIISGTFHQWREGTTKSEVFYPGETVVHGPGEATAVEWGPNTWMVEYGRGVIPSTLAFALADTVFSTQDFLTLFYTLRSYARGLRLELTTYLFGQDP
value_type: IC50

* CCC(=O)N=S(=O)(CC)c1ccc2c(c1)CN(C(C)(C)CCc1ccc(O)c(OC(C)(C)C)c1)C2 (stereo not drawn) [Compound 5] | > 1 µM
* CCS(=O)(=NC(C)=O)c1ccc2c(c1)CN(C(C)(C)CCc1ccc(O)c(OC(C)(C)C)c1)C2 (stereo not drawn) [Compound 4] | > 1 µM
* CCCCS(=N)(=O)c1ccc2c(c1)CN(C(C)(C)CCc1ccc(O)c(OC(C)(C)C)c1)C2 (stereo not drawn) [Compound 19] | > 1 µM
* CC(=O)N=S(=O)(CCCF)c1ccc2c(c1)CN(C(C)(C)CCc1ccc(O)c(OC(C)(C)C)c1)C2 (stereo not drawn) [Compound 14] | > 5 µM

Kindly state the measured IC50 obtained for CC(C)(C)Oc1cc(CCC(C)(C)N2Cc3ccc(S(=N)(=O)CCCF)cc3C2)ccc1O (stereo not drawn) [Compound 21] with sigma-1 receptor (Homo sapiens, UniProt Q99720).
> 5 µM

Kindly state the measured IC50 obtained for CC(C)(C)Oc1cc(CCC(C)(C)N2Cc3ccc(S(=N)(=O)CF)cc3C2)ccc1O (stereo not drawn) [Compound 20] with sigma-1 receptor (Homo sapiens, UniProt Q99720).
> 0.1 µM

Kindly state the measured IC50 obtained for CCCC(=O)N=S(=O)(CCC)c1ccc2c(c1)CN(C(C)(C)CCc1ccc(O)c(OC(C)(C)C)c1)C2 (stereo not drawn) [Compound 9] with sigma-1 receptor (Homo sapiens, UniProt Q99720).
> 5 µM

Kindly state the measured IC50 obtained for CC(C)(C)Oc1cc(CCC(C)(C)N2Cc3ccc(S(C)(=N)=O)cc3C2)ccc1O (stereo not drawn) [Compound 16] with sigma-1 receptor (Homo sapiens, UniProt Q99720).
> 0.1 µM

Kindly state the measured IC50 obtained for CCCC(=O)N=S(=O)(CC)c1ccc2c(c1)CN(C(C)(C)CCc1ccc(O)c(OC(C)(C)C)c1)C2 (stereo not drawn) [Compound 6] with sigma-1 receptor (Homo sapiens, UniProt Q99720).
> 5 µM

----------
pKi listing for selected compounds.
- tgt: sigma-2 receptor (Homo sapiens)
- Sequence (Q5BJF2 whole entry, species assumed): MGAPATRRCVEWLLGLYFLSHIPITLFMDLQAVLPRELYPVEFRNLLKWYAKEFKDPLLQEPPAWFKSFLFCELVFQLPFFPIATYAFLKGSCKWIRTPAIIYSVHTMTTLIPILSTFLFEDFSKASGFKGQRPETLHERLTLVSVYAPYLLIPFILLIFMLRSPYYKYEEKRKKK
pKi: −log10 of the molar value.

• CCCC(=O)N=S(=O)(CCC)c1ccc2c(c1)CN(C(C)(C)CCc1ccc(O)c(OC(C)(C)C)c1)C2 (centres unmarked) = < 6.30
• CCCCS(=O)(=NC(=O)CCC)c1ccc2c(c1)CN(C(C)(C)CCc1ccc(O)c(OC(C)(C)C)c1)C2 (centres unmarked) = < 6.30
• CC(=O)N=S(C)(=O)c1ccc2c(c1)CN(C(C)(C)CCc1ccc(O)c(OC(C)(C)C)c1)C2 (centres unmarked) = < 7.00
• CCS(=O)(=NC(C)=O)c1ccc2c(c1)CN(C(C)(C)CCc1ccc(O)c(OC(C)(C)C)c1)C2 (centres unmarked) = < 7.00
• CC(C)(C)Oc1cc(CCC(C)(C)N2Cc3ccc(S(C)(=N)=O)cc3C2)ccc1O (centres unmarked) = > 7.00

Kindly state the measured pKi obtained for CCCC(=O)N=S(=O)(CC)c1ccc2c(c1)CN(C(C)(C)CCc1ccc(O)c(OC(C)(C)C)c1)C2 (centres unmarked) with sigma-2 receptor (Homo sapiens).
< 6.30

Kindly state the measured pKi obtained for CC(=O)N=S(=O)(CCCCF)c1ccc2c(c1)CN(C(C)(C)CCc1ccc(O)c(OC(C)(C)C)c1)C2 (centres unmarked) with sigma-2 receptor (Homo sapiens).
< 6.30

Kindly state the measured pKi obtained for CC(C)(C)Oc1cc(CCC(C)(C)N2Cc3ccc(S(=N)(=O)CCCF)cc3C2)ccc1O (centres unmarked) with sigma-2 receptor (Homo sapiens).
< 6.30
